Target: Glutathione S-transferase class-mu 26 kDa isozyme (Schistosoma japonicum)
Sequence (P08515 2-218 limits assumed): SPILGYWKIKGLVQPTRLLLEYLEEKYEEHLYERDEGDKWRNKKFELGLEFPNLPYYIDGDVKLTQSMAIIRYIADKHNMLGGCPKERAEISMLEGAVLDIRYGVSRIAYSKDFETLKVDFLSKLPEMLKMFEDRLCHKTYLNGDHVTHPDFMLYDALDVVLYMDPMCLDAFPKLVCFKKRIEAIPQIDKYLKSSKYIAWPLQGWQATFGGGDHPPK
Assay: GST–glutathione interaction disruption – biochemical, multiplex beads, flow cytometry, HPSMTB buffer, profiling panel (AID 1324)
Below, each entry is listed alongside its reported EC50.
observable: EC50 (µM)

>>> df
                                   compound                           targetundertest  measurementunit  observedresult
0  CN(C)[C@@H]1C(=O)C(C(=O)NCN2CCCC2)C(=O)[C@@]2(O)C(=O)C3C(=O)c4c(O)cccc4[C@@](C)(O)C3CC12 (some centres undefined)  Glutathione S-transferase class-mu 26 kDa isozyme (Schistosoma japonicum)               µM            21.4
1       COc1cccc(CN=Nc2nn3cnnc3c3ccccc23)c1  Glutathione S-transferase class-mu 26 kDa isozyme (Schistosoma japonicum)               µM            7.28
2      COc1cc(CN=Nc2nn3cnnc3c3ccccc23)ccc1O  Glutathione S-transferase class-mu 26 kDa isozyme (Schistosoma japonicum)               µM            2.36
3  O=[N+]([O-])c1ccc(N=NCc2ccc(O)c(O)c2O)c(S(=O)(=O)N2CCOCC2)c1  Glutathione S-transferase class-mu 26 kDa isozyme (Schistosoma japonicum)               µM              24

Where these numbers come from: BindingDB's records for doi:10.7270/Q2M61HPT
